The measurements presented in this section are drawn from ChEMBL document CHEMBL1155779.

- MEASURED TARGET: Serum paraoxonase/arylesterase 1 (Homo sapiens) (UniProt P27169)
- Sequence (P27169 whole entry): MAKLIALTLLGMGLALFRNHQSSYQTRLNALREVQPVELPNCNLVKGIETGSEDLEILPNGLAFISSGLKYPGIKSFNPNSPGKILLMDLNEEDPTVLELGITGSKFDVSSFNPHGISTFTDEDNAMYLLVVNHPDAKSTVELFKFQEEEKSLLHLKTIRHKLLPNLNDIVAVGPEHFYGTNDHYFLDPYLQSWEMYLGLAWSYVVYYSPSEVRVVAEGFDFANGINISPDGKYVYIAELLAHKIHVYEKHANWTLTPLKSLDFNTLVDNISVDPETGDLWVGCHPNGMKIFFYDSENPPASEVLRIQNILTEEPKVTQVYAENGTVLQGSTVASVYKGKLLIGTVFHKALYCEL
- PROCEDURE SUMMARY: Activity at human recombinant PON1 assessed as hydrolysis of lactone ring at 1 mM by Ellman's method
Each entry below carries its recorded Activity.
Could you give me the number in µmol/min/mg? Just the number is fine.

Task: What does the data say about its Activity? Entry: `C[C@H]1CC(=O)O1`
Result: 3.83

Task: What does the data say about its Activity? Entry: `O=C1Cc2cc(O)ccc2O1`
Result: 33

Task: What does the data say about its Activity? Entry: `O=C1C[C@H]2C=CC[C@H]2O1`
Result: 0.83

Task: What does the data say about its Activity? Entry: `O=C1Cc2ccccc2O1`
Result: 13.6

Task: What does the data say about its Activity? Entry: `CC1=CCC(=O)O1`
Result: 18.3

Task: What does the data say about its Activity? Entry: `O=C(O)Cc1ccccc1`
Result: 112

Task: What does the data say about its Activity? Entry: `O=C1C[C@@H]2C=CC[C@@H]2O1`
Result: 1.67
